- Test system: A498 renal
- measurement description: NCI-60 one-dose screen, 48 h
- measurement setup: 10 µM unless noted
The panel holds about 83,000 compounds, 20% with a hit somewhere; the sample as a whole holds those more often. Calls of active or inactive are those of the source. The calls were made as follows: active = growth percent below 10; inactive = the rest.
Possible outcomes: 1 for active, -1 for inactive

>  <compound>
COc1cc(OC)cc(-c2cc3ccc(N(C)C)cc3c(=O)[nH]2)c1

>  <class name>
-1

$$$$
>  <compound>
COc1cc(-c2nc3cc(Cl)c(Cl)cc3[nH]2)ccc1OCc1nnc(-c2cccs2)o1

>  <class name>
-1

$$$$
>  <compound>
N#Cc1c(-c2ccc(Br)cc2)nc2n[nH]c(-c3ccc(Br)cc3)c2c1-c1ccc(C(F)(F)F)cc1

>  <class name>
-1

$$$$
>  <compound>
COc1cc(CNC(=O)/C=C/c2ccc3c(c2)OCO3)ccc1OCc1cn(-c2cccc(C(F)(F)F)c2)nn1

>  <class name>
-1

$$$$
>  <compound>
CCS(=O)(=O)N1CCCC(C(=O)Nc2nc3ccc(NC(=O)c4ccc(F)c(OC)c4F)cc3s2)C1 (centres undefined)

>  <class name>
-1

$$$$
>  <compound>
Cc1ccc([C@H]2C(C(=O)c3ccc(Cl)cc3)C3(N[C@@H]2c2ccccc2)C(=O)Nc2ccc(Br)cc23)cc1 (some centres undefined)

>  <class name>
-1

$$$$
>  <compound>
COc1ccc(C(=O)/C=C/c2ccc(OC)c(OCc3ccccc3)c2)cc1OC

>  <class name>
-1

$$$$
>  <compound>
Cn1cc(-c2nc(N)nnc2-c2c[nH]c3ccc(Br)cc23)c2cc(Br)cnc21

>  <class name>
1

$$$$
>  <compound>
Cc1ccc(S(=O)(=O)c2nc(S(=O)(=O)c3ccc(C)cc3)c(N3CCN(C)CC3)s2)cc1

>  <class name>
-1

$$$$

###

Listed compounds paired with reported growth
- System: SF-268 CNS
- measurement description: NCI-60 one-dose screen, 48 h (100 = growth as untreated, 0 = no growth, -100 = all killed)
- measurement setup: 10 µM unless noted
About 83,000 compounds went through this panel and 20% of them were active in at least one assay; those are over-represented in the sample as a whole.
readout name: growth (%)

>  <compound>
O=c1cc(-c2ccccc2)oc2cc(OCCCC[P+](c3ccccc3)(c3ccccc3)c3ccccc3)cc(O)c12

>  <assay result>
-59

$$$$
>  <compound>
COc1cc2c(c(OC)c1OC)C(=O)CC(c1cccc(NC(=O)c3cccc(NC(=O)[C@H](C)NC(=O)OC(C)(C)C)c3)c1)O2 (some centres undefined)

>  <assay result>
53.6

$$$$
>  <compound>
Cc1ccc(C2=NN(c3nc(-c4cc5ccccc5oc4=O)cs3)C(c3ccc(C)cc3)C2)cc1 (centres undefined)

>  <assay result>
120

$$$$
>  <compound>
CN1C(=O)/C(=C/c2ccc(C(=O)Nc3ncc(Cc4ccc(Cl)cc4Cl)s3)cc2)SC1=S

>  <assay result>
47

$$$$
>  <compound>
O=C(NNc1nc2cc(F)ccc2n2c(C(=O)N3CCN(C4CC4)CC3)ccc12)c1ncccn1

>  <assay result>
29.9

$$$$
>  <compound>
Cc1cc(=O)oc2cc(OCCCOc3ccc(/C=C/C(=O)Nc4ccccc4N)cc3)ccc12

>  <assay result>
21.9

$$$$
>  <compound>
Cn1cc(-c2cc(N)n3nc(-c4cn(C)c5ncccc45)cc3n2)c2cccnc21

>  <assay result>
92.7

$$$$
>  <compound>
N#Cc1c(-c2cccc(O)c2O)cc(-c2ccc3ccccc3c2)[nH]c1=O

>  <assay result>
58.6

$$$$
>  <compound>
O=C(NN1C(=O)/C(=C/C=C/c2ccc([N+](=O)[O-])o2)SC1=S)c1cccc(O)c1

>  <assay result>
-91.3

$$$$

###

- Tested on: SF-539 CNS
- measurement description: NCI-60 one-dose screen, 48 h
- measurement setup: 10 µM unless noted
About 83,000 compounds went through this panel and 20% of them were active in at least one assay; those are over-represented in the sample as a whole. Activity calls are given as the source filed them. The calls were made as follows: active = growth percent below 10; inactive = the rest.
Possible outcomes: true (1) (active), false (0) (inactive)

>  <molecule>
O=C(NNc1nc2cc(F)ccc2n2c(CN3CC4CNCC4C3)ccc12)c1ccncn1 (stereo not given)

>  <tested target>
SF-539 CNS

>  <class name>
true (1)

$$$$
>  <molecule>
COc1ccc(-c2cc(C(=O)NCc3ccccc3)nn2-c2ccc(S(C)(=O)=O)cc2)cc1OC

>  <tested target>
SF-539 CNS

>  <class name>
false (0)

$$$$
>  <molecule>
CCOC(=O)COc1c(OC)c(OC)cc2oc(-c3cccc(C(=O)Nc4ccc(Cl)cc4)c3)cc(=O)c12

>  <tested target>
SF-539 CNS

>  <class name>
false (0)

$$$$
>  <molecule>
COc1ccc(CCC2c3c(cc4c(c3OC)OCO4)CCN2C)cc1 (stereo not given)

>  <tested target>
SF-539 CNS

>  <class name>
true (1)

$$$$
>  <molecule>
CC1CN(c2oc(-c3ccc([N+](=O)[O-])cc3)nc2C#N)CC(C)O1 (stereo not given)

>  <tested target>
SF-539 CNS

>  <class name>
false (0)

$$$$
>  <molecule>
CC1=C(C(=O)c2ccccc2)C(c2cccc3ccccc23)n2c(nc3ccccc32)N1 (stereo not given)

>  <tested target>
SF-539 CNS

>  <class name>
true (1)

$$$$
>  <molecule>
C/C(=N\N=C1/C(=O)Nc2ccc(Cl)cc21)c1ccc2c(c1)Nc1ccccc1S2

>  <tested target>
SF-539 CNS

>  <class name>
true (1)

$$$$
>  <molecule>
O=C(CN1C(=O)/C(=C/c2ccccc2F)SC1=S)N1CCOCC1

>  <tested target>
SF-539 CNS

>  <class name>
false (0)

$$$$
>  <molecule>
CCOC(=O)/C=C/c1cccc2c1C(=O)NC(C)(c1cc3cc(Cl)ccc3oc1=O)N2 (stereo not given)

>  <tested target>
SF-539 CNS

>  <class name>
false (0)

$$$$
>  <molecule>
S=C(Nc1ccc(OCc2nc3ccccc3[nH]2)cc1)NC1CCCCC1

>  <tested target>
SF-539 CNS

>  <class name>
false (0)

$$$$
>  <molecule>
Cc1nc(Nc2ccccn2)sc1C(=O)CC(SCC(=O)Nc1ccc(Cl)cc1)c1ccccc1F (stereo not given)

>  <tested target>
SF-539 CNS

>  <class name>
true (1)

$$$$
>  <molecule>
CCOC(=O)C1=C(N)N(c2ccccc2)C2=C(C(=O)CC(C)(C)C2)C1c1ccccc1Cl (stereo not given)

>  <tested target>
SF-539 CNS

>  <class name>
false (0)

$$$$
>  <molecule>
CC(C)CCNC(=O)N/C(N)=N/c1nc2ccccc2s1

>  <tested target>
SF-539 CNS

>  <class name>
false (0)

$$$$
>  <molecule>
COc1cccc(/C=C/C(=O)c2ccc(OC)c(S(N)(=O)=O)c2)c1

>  <tested target>
SF-539 CNS

>  <class name>
true (1)

$$$$
>  <molecule>
CC(=O)NNc1ccc2nnc(-c3ccccc3)n2n1

>  <tested target>
SF-539 CNS

>  <class name>
false (0)

$$$$
>  <molecule>
C=C1CC[C@@H]2[C@]3(C)COC(c4cn[nH]c4-c4ccc(F)cc4)O[C@@H]3CC[C@@]2(C)[C@@H]1C/C=C1/C(=O)OCC1O (stereo not given in full)

>  <tested target>
SF-539 CNS

>  <class name>
true (1)

$$$$
>  <molecule>
Cn1cc(-c2cc3nc(-c4c[nH]c5ccc(Cl)cc45)cc(N)n3n2)c2ccccc21

>  <tested target>
SF-539 CNS

>  <class name>
true (1)

$$$$
>  <molecule>
CN(C)c1ccnc(CNCCSC2(c3ccccc3)c3ccccc3C=Cc3ccccc32)c1

>  <tested target>
SF-539 CNS

>  <class name>
true (1)

$$$$
>  <molecule>
COc1cc2c(c(OC)c1OC)C(=O)CC(c1cccc(NC(=O)c3cc([N+](=O)[O-])ccc3Cl)c1)O2 (stereo not given)

>  <tested target>
SF-539 CNS

>  <class name>
false (0)

$$$$
>  <molecule>
N#Cc1c(-c2cccc(O)c2O)cc(-c2ccc3ccccc3c2)[nH]c1=O

>  <tested target>
SF-539 CNS

>  <class name>
false (0)

$$$$

###

Listed molecules paired with reported growth
- Test system: M14 melanoma
- measurement description: NCI-60 one-dose screen, 48 h (100 = growth as untreated, 0 = no growth, -100 = all killed)
- measurement setup: 10 µM unless noted
About 83,000 compounds went through this panel and 20% of them were active in at least one assay; those are over-represented in the sample as a whole.

>  <molecule>
CN(C)CCCNC(=O)c1cc(NC(=O)c2cc(NC(=O)c3ccc(/C=C/c4ccccc4)cc3)cn2C)cn1C

>  <unit name>
%

>  <growth>
48.1

$$$$
>  <molecule>
C#CCOc1cc(N(CC)CC)ccc1C(C(=O)NC(C)(C)C)N(C(=O)C1CCc2cc(F)ccc2O1)c1cc(C)cc(C)c1 (stereo not drawn)

>  <unit name>
%

>  <growth>
39.9

$$$$
>  <molecule>
Cc1sc(C(NC(=O)OCCn2c([N+](=O)[O-])cnc2C)C(F)(F)Cl)nc1-c1ccc(OC(F)(F)F)cc1 (stereo not drawn)

>  <unit name>
%

>  <growth>
-67.5

$$$$
>  <molecule>
C=C1CCC2C3(C)COC(c4ccc(F)cc4)OC3CCC2(C)C1C/C=C1/C(=O)OCC1O (stereo not drawn)

>  <unit name>
%

>  <growth>
-68.1

$$$$
>  <molecule>
CC1=C(C(=O)OCc2ccccc2)C(c2ccc(-n3cncn3)cc2)n2c(nc3ccccc32)N1 (stereo not drawn)

>  <unit name>
%

>  <growth>
50.5

$$$$
>  <molecule>
CN1CCN(Cc2ccc(C(=O)Nc3cccc(C#Cc4cccc5[nH]nc(N)c45)c3)cc2C(F)(F)F)CC1

>  <unit name>
%

>  <growth>
-95.6

$$$$
>  <molecule>
O=C(Cn1c(/C=C/c2cccc([N+](=O)[O-])c2)nc2ccccc2c1=O)Nc1ccccc1

>  <unit name>
%

>  <growth>
70.6

$$$$
>  <molecule>
CC1(C)CC[C@]2(C(=O)O)CC[C@]3(C)C(=CCC4[C@@]5(C)C[C@@H](O)[C@@H]6OC(c7ccc(F)cc7)OC[C@@]6(C)C5CC[C@]43C)C2C1 (stereo partly drawn)

>  <unit name>
%

>  <growth>
40.4

$$$$
